Assay: Tissue distribution and oral exposure in ICR mice (LC-MS)
Type: in vivo
Details: mouse, oral 5 mg/kg, heart plasma, read-out: AUC0-8h, Heart plasma
measurementLabel: AUC(0-t) (ng·h/mL)
Answers are plain numbers, in ng·h/mL.

Query string: Can you share its AUC(0-t)? I mean this molecule: COc1cccc2c1Sc1ccccc1C=C2OP(=O)(O)O[C@@H]1C[C@@H]2CC[C@@]1(C)C2(C)C [LSX472a]
Result string: 7750

====

Target: GPR84 (Homo sapiens, UniProt Q9NQS5)
Sequence (Q9NQS5 whole entry): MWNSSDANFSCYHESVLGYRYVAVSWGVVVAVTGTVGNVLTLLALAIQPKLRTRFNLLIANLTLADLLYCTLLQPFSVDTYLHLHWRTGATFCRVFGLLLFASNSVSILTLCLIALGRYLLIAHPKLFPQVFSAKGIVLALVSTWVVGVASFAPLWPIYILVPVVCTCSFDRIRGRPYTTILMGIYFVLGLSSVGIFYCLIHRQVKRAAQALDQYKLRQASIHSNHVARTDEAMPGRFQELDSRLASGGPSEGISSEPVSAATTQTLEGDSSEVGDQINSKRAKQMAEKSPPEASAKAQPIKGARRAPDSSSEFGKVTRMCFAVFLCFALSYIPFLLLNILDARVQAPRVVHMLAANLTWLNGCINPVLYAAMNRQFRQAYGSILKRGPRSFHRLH
Test: GPR84 antagonistic activity, calcium flux (Fluo-4) assay with agonist 6-OAU
Format: cell-based
Set-up: expressed in transfected cells; host or cells: HEK293
Settings: IC50, HEK293 cells with GPR84 and Gα16; Fluo-4 calcium signal; agonist 6-OAU around EC80
measurementLabel: IC50

Query string: Given the entry COc1cccc2c1Sc1ccccc1C=C2OP(=O)(O)OC1C(C)(C)CCCC1(C)C , what IC50 was observed with GPR84 (Homo sapiens, UniProt Q9NQS5)?
Result string: 100 to 1000 nM

Query string: How about CC1(C)[C@@H]2CC[C@@]1(C)[C@H](OP(=O)(O)OC1=Cc3c(Cl)cccc3Sc3ccccc31)C2 (racemic) [LSX476b] ?
Result string: < 100 nM

Query string: Do the same for CC1(C)[C@H]2CC[C@]1(C)[C@H](OP(=O)(O)OC1=Cc3c(Cl)cccc3Sc3ccccc31)C2 [LSX476a] please
Result string: < 100 nM

Query string: Subsequent entry: COc1cccc2c1Sc1ccccc1C=C2OP(=O)(O)O[C@@H]1CC[C@@]2(C)[C@@H](C1)C[C@@H](O)[C@@H]1[C@@H]2C[C@H](O)[C@]2(C)[C@@H]([C@H](C)CCC(=O)O)CC[C@@H]12
Result string: 1000 to 10000 nM

Query string: Query COc1cccc2c1Sc1ccccc1C=C2OP(=O)(O)OC1CCC(C)CC1 (stereo not shown) next
Result string: 1000 to 10000 nM

Look up IC50 for the entries below, preserving their order.
1. COc1cccc2c1Oc1ccccc1C=C2OP(=O)(O)O[C@@H]1C(C)(C)[C@@H]2CC[C@@]1(C)C2 [LSX456j]
2. COc1cccc2c1Sc1ccccc1C=C2OP(=O)(O)OC12CC3CC(C1)C(Nc1c(C(N)=O)cnc4[nH]ccc14)C(C3)C2 (stereo not shown)

Result string:
1. 1000 to 10000 nM
2. 1000 to 10000 nM
